Source of measurements: PubChem BioAssay AID1259407

- Tested on: CCRIS mutagenicity, Ames/micronucleus/aberration tests
- procedure_summary: CCRIS mutagenicity studies
- condition_parameters: Test System: AMES SALMONELLA TYPHIMURIUM; Strain/Indicator: TA98; Metabolic Activation: HAMSTER, LIVER, S-9, AROCLOR 1254 (10%); Method: PREINCUBATION
Activity calls are given as the source filed them. The rule behind the calls is not given here.
A correct response names exactly one class from YES for active, NO for inactive

Reference set (5 entries):
Cc1ccc(N)cc1O :: YES
CNc1ccccc1 :: NO
N[C@H](Cc1ccccc1)C(=O)O :: NO
COP(=S)(OC)SCn1nnc2ccccc2c1=O :: NO
Cc1cccc(N)c1C :: YES

Challenge: Returns: the outcome recorded for CC(Cl)(Cl)[N+](=O)[O-] in this assay.
Response given: NO

Challenge: I'd appreciate the recorded outcome for [Cl][Hg][Cl] from this test.
Response given: NO

Challenge: Record request — test call for COc1ccc(C(=O)/C(Br)=C\C(=O)O)cc1
Response given: YES

Challenge: State the result this test recorded for CCCCCCCCOC(=O)c1ccccc1C(=O)OCCCCCCCC .
Response given: NO

Challenge: Called result for OCC(CO)(CBr)CBr
Response given: NO

Challenge: Please let me know the test result on file for CC(C)CCC(C)Nc1ccc(NC(C)CCC(C)C)cc1 (configuration not stated) .
Response given: NO

Challenge: What outcome does the record of this test show for CCCCOCCCC ?
Response given: NO
